- Tested on: Candida albicans
- Method Notes: In vitro minimum potentiation concentration to achieve an 8-fold reduction in fluconazole MIC against Candida albicans strain YEM15 (overexpressing both CDR1 and CDR2)
- Assay type: functional
Class 1: MPC8 at least 4 µg/mL. Class 0: MPC8 below 4 µg/mL.

Here are 10 compounds together with their reported answers.
COc1cc(N(C(=O)Nc2ccc(F)cc2)C(C)c2nc3ccccc3c(=O)n2N2CCN(C)CC2)cc(OC)c1OC (stereo not drawn) ... 1
COc1ccc(N(C(=O)Nc2ccc(F)cc2)C(C)c2nc3ccc(OCC(N)=O)cc3c(=O)n2N2CCN(C)CC2)c(OC)c1 (stereo not drawn) ... 1
COc1ccc(N(C(=O)Nc2ccc(F)cc2)C(C)c2nc3ccccc3c(=O)n2N2CCN(C)CC2)cc1 (stereo not drawn) ... 1
COc1ccc(N(C(C)c2nc3ccccc3c(=O)n2N2CCN(C)CC2)S(=O)(=O)c2ccc(Cl)cc2)c(OC)c1 (stereo not drawn) ... 1
COc1ccc(N(C(=O)Nc2ccc(F)cc2)C(C)c2nc3ccc(F)cc3c(=O)n2N2CCN(C)CC2)c(OC)c1 (stereo not drawn) ... 0
COc1ccc(N(C(=O)Nc2nc3ccccc3s2)C(C)c2nc3ccccc3c(=O)n2N2CCN(C)CC2)c(OC)c1 (stereo not drawn) ... 0
CC(c1nc2ccccc2c(=O)n1N1CCN(C)CC1)N(C)C(=O)Nc1ccc(F)cc1 (stereo not drawn) ... 1
COc1ccc(N(C(=O)Nc2ccc(F)cc2)C(C)c2nc3ccccc3c(=O)n2N2CCN(C)CC2)cc1OC (stereo not drawn) ... 1
COc1ccc(N(C(=O)Nc2cccc(C#N)c2)C(C)c2nc3ccccc3c(=O)n2N2CCN(C)CC2)c(OC)c1 (stereo not drawn) ... 1
COc1ccc(N(C(=O)Nc2ccc(F)cc2)C(C)c2nc3cc(F)ccc3c(=O)n2N2CCN(C)CC2)c(OC)c1 (stereo not drawn) ... 0

Consider now this further compound.
Query: Has COc1ccc(N(C(=O)Nc2ccc(F)cc2)C(C)c2nc3ccc(O)cc3c(=O)n2N2CCN(C)CC2)c(OC)c1 (stereo not drawn) a recorded MPC8 greater than or equal to 4 µg/mL?
Response: 1
